- Assay protocol: Remdesivir solubility in co-solvents
- Type: physicochemical
- Condition label: organic solvent or mixture; solvent Span 80; read-out: Solubility
Measured property: solubility (µg/mL)

mol_smiles=CCC(CC)COC(=O)[C@H](C)N[P@](=O)(OC[C@H]1O[C@@](C#N)(c2ccc3c(N)ncnn23)[C@H](O)[C@@H]1O)Oc1ccccc1 measured_property=solubility reported_value=300

====

- Assay protocol: physchem
- Type: physicochemical
- Condition label: pH 1.38, simulated gastric fluid, Solubility
Measured property: solubility

mol_smiles=CCC(CC)COC(=O)[C@H](C)N[P@](=O)(OC[C@H]1O[C@@](C#N)(c2ccc3c(N)ncnn23)[C@H](O)[C@@H]1O)Oc1ccccc1 reported_value="980 µg/mL"

====

- Assay protocol: physchem
- Assay type: physicochemical
- Condition label: pH 2.91, aqueous buffer, Solubility
Measured property: solubility (µg/mL)

mol_smiles=CCC(CC)COC(=O)[C@H](C)N[P@](=O)(OC[C@H]1O[C@@](C#N)(c2ccc3c(N)ncnn23)[C@H](O)[C@@H]1O)Oc1ccccc1 measured_property=solubility unit_abbrev=µg/mL reported_value=5

====

- Assay protocol: physchem
- Format: physicochemical
- Condition label: aqueous with cosolvent or surfactant or cyclodextrin, Kolliphor EL (Polyoxyl 35 Castor Oil, Cremophor) 0.10 % w/w in water; read-out: Remdesivir Solubility
Measured property: solubility (µg/mL)

compound="CCC(CC)COC(=O)[C@H](C)N[P@](=O)(OC[C@H]1O[C@@](C#N)(c2ccc3c(N)ncnn23)[C@H](O)[C@@H]1O)Oc1ccccc1 [Remdesivir]" unit_abbrev=µg/mL reported_value=20

====

- Assay protocol: physchem
- Type: physicochemical
- Condition label: pH 1, aqueous buffer, Solubility
Measured property: solubility (µg/mL)

mol_smiles=CCC(CC)COC(=O)[C@H](C)N[P@](=O)(OC[C@H]1O[C@@](C#N)(c2ccc3c(N)ncnn23)[C@H](O)[C@@H]1O)Oc1ccccc1 measured_property=solubility reported_value=640
